Tested on: OVCAR-3 ovarian
Test: NCI-60 one-dose screen, 48 h (100 = growth as untreated, 0 = no growth, -100 = all killed)
Settings: 10 µM unless noted
Experimental: Growth inhibition of the OVCAR-3 human tumor cell line is measured as a screen for anti-cancer activity. Cells are grown in 96 well plates and exposed to the test compound for 48 hours. Compounds are tested at a single concentration, which is 10^-5 M for most compounds. The reported endpoint is percent growth (GI% or GIPRCNT), where numbers from 0 - 100% represent growth inhibition, and numbers from -100% - 0 represent cell death. For example, a value of 40 represents 60% growth inhibition. […]
The panel holds about 83,000 compounds, 20% with a hit somewhere; the sample as a whole holds those more often.
Measure: growth (%)

>  <Molecule>
C=CCn1cc(-c2nc3ccccc3s2)c2cc(-c3ccc4c5c(cccc35)C(=O)N(CCN3CCNCC3)C4=O)ccc21

>  <Subject Of Test>
OVCAR-3 ovarian

>  <U>
%

>  <Reported Result>
105

$$$$
>  <Molecule>
COc1cc(NC(=O)SC2=NCCS2)cc(OC)c1

>  <Subject Of Test>
OVCAR-3 ovarian

>  <U>
%

>  <Reported Result>
113

$$$$
>  <Molecule>
Fc1ccccc1-c1nc(-c2nc3cc(Cl)c(Cl)cc3[nH]2)c2ccccn12

>  <Subject Of Test>
OVCAR-3 ovarian

>  <U>
%

>  <Reported Result>
70.5

$$$$
>  <Molecule>
O=C(O)Cc1cccc(=O)c(O)c1C(=O)O

>  <Subject Of Test>
OVCAR-3 ovarian

>  <U>
%

>  <Reported Result>
114

$$$$
>  <Molecule>
CC1CN(c2oc(-c3ccccc3)nc2C#N)CC(C)O1 (stereo unspecified)

>  <Subject Of Test>
OVCAR-3 ovarian

>  <U>
%

>  <Reported Result>
116

$$$$
>  <Molecule>
COc1ccc(-c2c(N)n[nH]c2-c2cc(OC)c3c(c2)OCCO3)cc1

>  <Subject Of Test>
OVCAR-3 ovarian

>  <U>
%

>  <Reported Result>
76.2

$$$$
